- Measured Target: human PGDH (Homo sapiens)
- Construct: human PGDH isolated from placenta
- Sequence (P15428 1-266): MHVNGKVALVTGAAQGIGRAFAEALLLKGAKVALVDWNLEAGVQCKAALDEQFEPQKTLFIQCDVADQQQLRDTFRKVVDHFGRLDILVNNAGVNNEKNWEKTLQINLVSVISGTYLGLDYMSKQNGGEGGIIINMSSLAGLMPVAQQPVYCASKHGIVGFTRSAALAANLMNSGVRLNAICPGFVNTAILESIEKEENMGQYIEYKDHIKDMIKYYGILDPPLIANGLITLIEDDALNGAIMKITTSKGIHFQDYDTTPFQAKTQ
- Experimental Protocol: Inhibitory effect on human PGDH isolated from placenta
- Details: radioactively labelled prostaglandin PGF 2, read-out: 50% PGDH inhibition at a concentration of
- Protocol: The compound of Example 2 was studied in respect of its inhibitory effect on human PGDH isolated from placenta. Radioactively labelled prostaglandin PGF 2 was incubated with the enzyme as according to Berry, C. N. et al., Biochem. Pharmacol. 1983, Vol. 32, p. 2863. The compound of Example 2 was added in various concentrations, and the inhibition was measured as stated above.
Readout Kind: pIC50
Note on pIC50: it is the negative log10 of concentration, concentration in mol/L.

compound="CCOC(=O)c1ccc(N=Nc2ccc(O)c(CC(=O)O)c2)cc1 [V, reference compound]" test_value=6.54

QUERY: Which pIC50 is listed for COC(=O)c1cc(N=Nc2ccc(O)c(CC(=O)O)c2)cc(C(=O)OC)c1 ?
RESULT: 7.55
